# key: entry, value: self-cleavage
B1: CPEB3 Ribozyme (parent)
chain: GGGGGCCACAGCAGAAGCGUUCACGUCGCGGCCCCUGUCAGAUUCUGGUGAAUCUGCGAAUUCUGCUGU

Variants of: B1
measurement-description: self-cleavage, relative activity (ratio to wild type); higher = more cleavage; co-transcriptional
Lab note: jot the number down without any unit.

* GGGGGCCACAGCAGAAGCGUUCACGUCGCGGCCCCUGUCAGAUUCUGGUCCAUCUGCGAAUUCUGCUGU [G50C A51C] | 0.876

The reported value for GGGGGCCACAGCAGAAGCGUUCACGUCGCGGCCCCUGUCAGAUUCUGGUGUAUCUGCGAAUUCUCCUGU [A51U G65C] in terms of self-cleavage is 0.674

The reported value for GGGGGCCACAGCAGAAGCGUUCACGUCGCAGCCCCUGUCAGAUUCUGGUGAGUCUGCGAAUUCUGCUGU [G30A A52G] in terms of self-cleavage is 0.852

The reported value for GGGGGCUACAGCAGAAGCGUUCACGUCGCGGCCCCUGUCAGAUUCUGGUGAAUCUGCUAAUUCUGCUGU [C7U G58U] in terms of self-cleavage is 0.983

The reported value for GGGGGCCACAGCAGAAGCGUUCACGUCGCGGCCCCUGUCAGAUUCUGGGGAAUAUGCGAAUUCUGCUGU [U49G C54A] in terms of self-cleavage is 0.907

The reported value for GGGGGCCACAGCAGAAGCGUUCACGUCGCUGCCCCUGUCAGAUUCUGGUGAAUCUGCGAGUUCUGCUGU [G30U A60G] in terms of self-cleavage is 0.176

The reported value for GGGGGCCACAGCAGAAGCGUUCACGUCGCCGCCCCUGUCAGAUGCUGGUGAAUCUGCGAAUUCUGCUGU [G30C U44G] in terms of self-cleavage is 0.549

The reported value for GGGGGCCACAGCAGAAGCGUUCACGUCGCGGCCCCAGUCAGAUACUGGUGAAUCUGCGAAUUCUGCUGU [U36A U44A] in terms of self-cleavage is 0.177

The reported value for GGGGGCCACACCGGAAGCGUUCACGUCGCGGCCCCUGUCAGAUUCUGGUGAAUCUGCGAAUUCUGCUGU [G11C A13G] in terms of self-cleavage is 0.558

The reported value for GGGGGGCACAGCAGAAGCGUUCACGUCGCGGCCCCUGUCAGAUUCUGGUGAAUCCGCGAAUUCUGCUGU [C6G U55C] in terms of self-cleavage is 0.284

The reported value for GGGGGCCAGAGCAGAAGCGUUCACGUAGCGGCCCCUGUCAGAUUCUGGUGAAUCUGCGAAUUCUGCUGU [C9G C27A] in terms of self-cleavage is 0.754
